- test_name: Acetone solubility
- Format: physicochemical
- condition_parameters: organic solvent or mixture, thermodynamic from solid, partial dissolution, solvent addition method
readout_name: Solubility

# Solubility (compound: "O=C(c1ccc(Oc2ccccc2)cc1Cl)c1c[nH]c2ncnc(N[C@@H]3CC[C@@H](CO)OC3)c12" ) is ≥ 16 mg/mL

----------
- test_name: Accelerated storage conditions (75% RH/40° C. for 72 hours), XRPD
- Format: physicochemical
readout_name: stability under accelerated storage conditions (XRPD)

INSERT INTO measurements (molecule, reported_result) VALUES
  ('O=S(=O)(O)c1cccc2c(S(=O)(=O)O)cccc12', 'decreased crystallinity'),
  ('Br.O=C(c1ccc(Oc2ccccc2)cc1Cl)c1c[nH]c2ncnc(N[C@@H]3CC[C@@H](CO)OC3)c12 [hydrobromide Form 1]', 'stable'),
  ('O=C(c1ccc(Oc2ccccc2)cc1Cl)c1c[nH]c2ncnc(N[C@@H]3CC[C@@H](CO)OC3)c12.O=P(O)(O)O [phosphate Form 1]', 'stable'),
  ('Cl.O=C(c1ccc(Oc2ccccc2)cc1Cl)c1c[nH]c2ncnc(N[C@@H]3CC[C@@H](CO)OC3)c12 [hydrochloride Form 2]', 'decreased crystallinity');

Please fill in: stability under accelerated storage conditions (XRPD) reported for O=C(c1ccc(Oc2ccccc2)cc1Cl)c1c[nH]c2ncnc(N[C@@H]3CC[C@@H](CO)OC3)c12.O=S(=O)(O)c1ccccc1 [besylate Form 1] = stable

Recorded result, O=C(O)C(=O)O.O=C(c1ccc(Oc2ccccc2)cc1Cl)c1c[nH]c2ncnc(N[C@@H]3CC[C@@H](CO)OC3)c12 [oxalate Form 3] , stability under accelerated storage conditions (XRPD): stable

// sample O=C(O)/C=C\C(=O)O.O=C(c1ccc(Oc2ccccc2)cc1Cl)c1c[nH]c2ncnc(N[C@@H]3CC[C@@H](CO)OC3)c12 [maleate Form 1] , its stability under accelerated storage conditions (XRPD) was stable

----------
moisture uptake by DVS overview
- test_name: Dynamic vapor sorption (DVS)
- Assay type: physicochemical
- condition_parameters: at 90% RH

INSERT INTO measurements (compound, reported_result) VALUES
  ('O=C(c1ccc(Oc2ccccc2)cc1Cl)c1c[nH]c2ncnc(N[C@@H]3CC[C@@H](CO)OC3)c12 [amorphous Compound A]', '3.9%');

# moisture uptake by DVS of O=C(c1ccc(Oc2ccccc2)cc1Cl)c1c[nH]c2ncnc(N[C@@H]3CC[C@@H](CO)OC3)c12 [Form 10] = 0.94%

----------
KF moisture (water) content listing for selected compounds.
- test_name: Karl Fischer coulometric titration (KF) water content
- Assay type: physicochemical
Field format: number, assumed %, no unit text.

Here's what some known entries look like.
INSERT INTO measurements (compound, readout_name, reported_result) VALUES
  ('O=C(c1ccc(Oc2ccccc2)cc1Cl)c1c[nH]c2ncnc(N[C@@H]3CC[C@@H](CO)OC3)c12.O=P(O)(O)O [phosphate Form 1]', 'KF moisture (water) content', 3.74),
  ('O=C(c1ccc(Oc2ccccc2)cc1Cl)c1c[nH]c2ncnc(N[C@@H]3CC[C@@H](CO)OC3)c12 [Form 10]', 'KF moisture (water) content', 1.48),
  ('Br.O=C(c1ccc(Oc2ccccc2)cc1Cl)c1c[nH]c2ncnc(N[C@@H]3CC[C@@H](CO)OC3)c12 [hydrobromide Form 1]', 'KF moisture (water) content', 7.39),
  ('Br.O=C(c1ccc(Oc2ccccc2)cc1Cl)c1c[nH]c2ncnc(N[C@@H]3CC[C@@H](CO)OC3)c12 [hydrobromide Form 2]', 'KF moisture (water) content', 1.97);

Please look at the following compound next.
// KF moisture (water) content lookup, compound = O=C(c1ccc(Oc2ccccc2)cc1Cl)c1c[nH]c2ncnc(N[C@@H]3CC[C@@H](CO)OC3)c12.O=S(=O)(O)CCS(=O)(=O)O [edisylate Form 1] , result: 0.94

----------
- test_name: 7 day stability testing, open vials at 40° C./75% RH, ambient and 80° C.
- Format: physicochemical
- condition_parameters: T = 0, before storage
Measured T = 0 purity (%), listed per entry.
Note: unit % is implicit; provide only the numeric part.

INSERT INTO results (molecule, readout_name, reported_result) VALUES
  ('O=C(c1ccc(Oc2ccccc2)cc1Cl)c1c[nH]c2ncnc(N[C@@H]3CC[C@@H](CO)OC3)c12 [Form 8]', 'T = 0 purity (%)', 99.0),
  ('O=C(c1ccc(Oc2ccccc2)cc1Cl)c1c[nH]c2ncnc(N[C@@H]3CC[C@@H](CO)OC3)c12.O=S(=O)(O)c1ccccc1 [besylate Form 1]', 'T = 0 purity (%)', 97.4);

Short answer for O=C(c1ccc(Oc2ccccc2)cc1Cl)c1c[nH]c2ncnc(N[C@@H]3CC[C@@H](CO)OC3)c12 [Form 4] : T = 0 purity (%) was 98.8

T = 0 purity (%) reported for this molecule O=C(c1ccc(Oc2ccccc2)cc1Cl)c1c[nH]c2ncnc(N[C@@H]3CC[C@@H](CO)OC3)c12.O=S(=O)(O)CCS(=O)(=O)O [edisylate Form 1] : 97.9

Entry O=C(c1ccc(Oc2ccccc2)cc1Cl)c1c[nH]c2ncnc(N[C@@H]3CC[C@@H](CO)OC3)c12 [Form 1] , T = 0 purity (%) reported as 99.3

----------
- test_name: Acetone solubility
- Assay type: physicochemical
- condition_parameters: form of residual solid; amorphous input: Form 2 residual solid with additional peaks
readout_name: Acetone solubility: residual solid

INSERT INTO results (compound, reported_result) VALUES
  ('O=C(c1ccc(Oc2ccccc2)cc1Cl)c1c[nH]c2ncnc(N[C@@H]3CC[C@@H](CO)OC3)c12 [Form 1]', '(Form 2 residual'),
  ('O=C(c1ccc(Oc2ccccc2)cc1Cl)c1c[nH]c2ncnc(N[C@@H]3CC[C@@H](CO)OC3)c12 [Form 8]', '(Form 2 residual'),
  ('O=C(c1ccc(Oc2ccccc2)cc1Cl)c1c[nH]c2ncnc(N[C@@H]3CC[C@@H](CO)OC3)c12 [amorphous Compound A]', '(Form 2 residual');

----------
Reported Purity after 1 week (%) by item:
- test_name: 7 day stability testing, open vials at 40° C./75% RH, ambient and 80° C.
- Assay type: physicochemical
- condition_parameters: Ambient, open vials, 1 week
Dear colleague, please return just the value in %, with no unit written.

INSERT INTO results (molecule, readout_name, reported_result) VALUES
  ('O=C(c1ccc(Oc2ccccc2)cc1Cl)c1c[nH]c2ncnc(N[C@@H]3CC[C@@H](CO)OC3)c12 [Form 1]', 'Purity after 1 week (%)', 99.3),
  ('O=C(c1ccc(Oc2ccccc2)cc1Cl)c1c[nH]c2ncnc(N[C@@H]3CC[C@@H](CO)OC3)c12.O=S(=O)(O)c1ccccc1 [besylate Form 1]', 'Purity after 1 week (%)', 97.4),
  ('O=C(c1ccc(Oc2ccccc2)cc1Cl)c1c[nH]c2ncnc(N[C@@H]3CC[C@@H](CO)OC3)c12 [Form 4]', 'Purity after 1 week (%)', 98.9),
  ('O=C(c1ccc(Oc2ccccc2)cc1Cl)c1c[nH]c2ncnc(N[C@@H]3CC[C@@H](CO)OC3)c12 [Form 8]', 'Purity after 1 week (%)', 99.0);

Let us move to another entry and its Purity after 1 week (%).
The molecule listed as O=C(c1ccc(Oc2ccccc2)cc1Cl)c1c[nH]c2ncnc(N[C@@H]3CC[C@@H](CO)OC3)c12.O=S(=O)(O)CCS(=O)(=O)O [edisylate Form 1] has a reported Purity after 1 week (%) of 97.9

----------
# Purity after 1 week (%) per record follows
- test_name: 7 day stability testing, open vials at 40° C./75% RH, ambient and 80° C.
- Format: physicochemical
- condition_parameters: 80° C., open vials, 1 week
Numeric answer only, unit % assumed.

Solved entries:
INSERT INTO results (compound, readout_name, reported_result) VALUES
  ('O=C(c1ccc(Oc2ccccc2)cc1Cl)c1c[nH]c2ncnc(N[C@@H]3CC[C@@H](CO)OC3)c12 [Form 8]', 'Purity after 1 week (%)', 99.0),
  ('O=C(c1ccc(Oc2ccccc2)cc1Cl)c1c[nH]c2ncnc(N[C@@H]3CC[C@@H](CO)OC3)c12 [Form 1]', 'Purity after 1 week (%)', 99.4),
  ('O=C(c1ccc(Oc2ccccc2)cc1Cl)c1c[nH]c2ncnc(N[C@@H]3CC[C@@H](CO)OC3)c12.O=S(=O)(O)c1ccccc1 [besylate Form 1]', 'Purity after 1 week (%)', 97.4),
  ('O=C(c1ccc(Oc2ccccc2)cc1Cl)c1c[nH]c2ncnc(N[C@@H]3CC[C@@H](CO)OC3)c12.O=S(=O)(O)CCS(=O)(=O)O [edisylate Form 1]', 'Purity after 1 week (%)', 97.5);

Per the records, this compound ( O=C(c1ccc(Oc2ccccc2)cc1Cl)c1c[nH]c2ncnc(N[C@@H]3CC[C@@H](CO)OC3)c12 [Form 4] ) has Purity after 1 week (%) equal to 98.9

----------
- test_name: 7 day stability testing, open vials at 40° C./75% RH, ambient and 80° C.
- Type: physicochemical
- condition_parameters: 40° C./75% RH, open vials, 1 week
Each entry below lists one item and its recorded Purity after 1 week (%) value.
Give the value, in units of %, as a plain number.

INSERT INTO measurements (compound, readout_name, reported_result) VALUES
  ('O=C(c1ccc(Oc2ccccc2)cc1Cl)c1c[nH]c2ncnc(N[C@@H]3CC[C@@H](CO)OC3)c12 [Form 1]', 'Purity after 1 week (%)', 99.4),
  ('O=C(c1ccc(Oc2ccccc2)cc1Cl)c1c[nH]c2ncnc(N[C@@H]3CC[C@@H](CO)OC3)c12 [Form 4]', 'Purity after 1 week (%)', 98.9),
  ('O=C(c1ccc(Oc2ccccc2)cc1Cl)c1c[nH]c2ncnc(N[C@@H]3CC[C@@H](CO)OC3)c12.O=S(=O)(O)c1ccccc1 [besylate Form 1]', 'Purity after 1 week (%)', 97.8),
  ('O=C(c1ccc(Oc2ccccc2)cc1Cl)c1c[nH]c2ncnc(N[C@@H]3CC[C@@H](CO)OC3)c12 [Form 8]', 'Purity after 1 week (%)', 99.0);

The record that follows has no Purity after 1 week (%) shown yet.
Briefly, Purity after 1 week (%) measured for O=C(c1ccc(Oc2ccccc2)cc1Cl)c1c[nH]c2ncnc(N[C@@H]3CC[C@@H](CO)OC3)c12.O=S(=O)(O)CCS(=O)(=O)O [edisylate Form 1] : 98.1
